system: XF498; assay: NCI tumour cell line growth inhibition, 48 h
The source made the active and inactive calls. Cut-off read from the data, not from the text of the source: active = GI50 up to about 1.1 µM and inactive = higher.
Form field: GI50 (one value per entry).

{"COMPOUND": "Nc1ccc(C2=Nc3ccccc3SC(c3ccccc3O)C2)cc1 (stereo unspecified)", "TESTED TARGET": "XF498", "READOUT": "GI50", "RESULT": "16.3 µM (inactive)"}

Which GI50 is reported for this compound? CCOC(=O)NC(=O)c1cn(CCN2CCNCC2)c(=O)[nH]c1=O
> 100 µM (inactive)

Then CNS(=O)(=O)NN(C)S(=O)(=O)c1ccc(Br)cc1 ?
> 100 µM (inactive)

Then C[C@]12CC[C@H](O)CC1=CC[C@@H]1C2CC[C@]2(C)C(=O)N(N)C(=O)CC12 (stereo partly specified) ?
> 100 µM (inactive)

Value source: ChEMBL document CHEMBL1201862
